Here the recorded Potentiation activity is given for each entry.
# Tested on: V79/S
# experiment: Anti-cancer activity potentiating action, colony formation, V79/S parent cells (A-III)
# Assay type: cell-based, Chinese hamster
# setup_conditions: V79/S; with compound (I) 10 μg/ml
# From the text: The anti-cancer activity potentiating action of the malate of formula (I) was examined using Chinese hamster cells (sensitive cell line V79/S and ADM-resistant cell line V79/ADM), human hepatoma cells (sensitive cell line PLC/S and colchicin-resistant cell line PLC/Col) and mouse leukemia cells (sensitive cell line L5178Y/S) and aclarubicin-resistant cell line L5178Y/ACR). […]
readout_kind: Potentiation activity (times)

CN(Cc1cnc2nc(N)nc(N)c2n1)c1ccc(C(=O)N[C@@H](CCC(=O)O)C(=O)O)cc1 [MTX, methotrexate]: 0.8
COc1cc([C@@H]2c3cc4c(cc3[C@@H](O[C@@H]3O[C@@H]5CO[C@@H](C)O[C@H]5[C@H](O)[C@H]3O)[C@H]3COC(=O)[C@H]23)OCO4)cc(OC)c1O [Etoposide, etoposide]: 2.8
O=c1[nH]cc(F)c(=O)[nH]1: 4.6
CC[C@@]1(O)C[C@H](O[C@H]2C[C@H](N(C)C)[C@H](O[C@H]3C[C@H](O)[C@H](O[C@H]4CCC(=O)[C@H](C)O4)[C@H](C)O3)[C@H](C)O2)c2c(cc3c(c2O)C(=O)c2c(O)cccc2C3=O)[C@H]1C(=O)OC: 1.37
O=C1c2c(O)ccc(O)c2C(=O)c2c(NCCNCCO)ccc(NCCNCCO)c21: 2.3
[NH2][Pt]([NH2])([Cl])[Cl] [CDDP, cisplatin]: 1.4

---

# Test system: V79/S
# experiment: Anti-cancer activity potentiating action, colony formation, V79/S parent cells (A-III)
# Format: cell-based, Chinese hamster
# setup_conditions: V79/S; with compound (I) 10 μg/ml
*1 amine or outer side, *2 acyl side, *3 side chain or, on linkers, in order; H or OH if unused. Where a SMILES comes first, the peptide text is derived from it. Bridges are numbered along the chain shown (N, C = ends). Roman numbers before positions name the chains, in order. [ ]: non-standard residue; d: D form. Actinocin(9to1) = Cc1c2oc3c(C)ccc(C(=O)[*:1])c3nc-2c(C(=O)[*:2])c(N)c1=O; NMeV = CN[C@H](C(=O)O)C(C)C; Sar = CNCC(=O)O
readout_kind: Potentiation activity (times)

Cc1ncc(CNC(=O)N(CCCl)N=O)c(N)n1 [ACNU, nimustine]: 1.4
Cc1c2oc3c(C)ccc(C(=O)N[C@@H]4C(=O)N[C@H](C(C)C)C(=O)N5CCC[C@H]5C(=O)N(C)CC(=O)N(C)[C@@H](C(C)C)C(=O)O[C@@H]4C)c3nc-2c(C(=O)N[C@@H]2C(=O)N[C@H](C(C)C)C(=O)N3CCC[C@H]3C(=O)N(C)CC(=O)N(C)[C@@H](C(C)C)C(=O)O[C@@H]2C)c(N)c1=O [ACD, actinomycin D] (I: T[dV]P[Sar][NMeV] / II: T[dV]P[Sar][NMeV]; ester I:1-I:C, II:1-II:C; linker I:N-II:N via Actinocin(9to1)): 5.3
CO[C@@]12[C@H](COC(N)=O)C3=C(C(=O)C(C)=C(N)C3=O)N1C[C@@H]1N[C@@H]12 [MMC, mitomycin C]: 2.0
Cc1c(N)nc([C@H](CC(N)=O)NC[C@H](N)C(N)=O)nc1C(=O)N[C@H](C(=O)N[C@H](C)[C@@H](O)[C@H](C)C(=O)N[C@H](C(=O)NCCc1nc(-c2nc(C(=O)NCCCN[C@@H](C)c3ccccc3)cs2)cs1)[C@@H](C)O)[C@@H](O[C@@H]1O[C@@H](CO)[C@@H](O)[C@H](O)[C@@H]1O[C@H]1O[C@H](CO)[C@@H](O)[C@H](OC(N)=O)[C@@H]1O)c1c[nH]cn1 [PEP, peplomycin]: 118
CC[C@]1(O)C[C@H]2CN(CCc3c([nH]c4ccccc34)[C@@](C(=O)OC)(c3cc4c(cc3OC)N(C=O)[C@H]3[C@@](O)(C(=O)OC)[C@H](OC(C)=O)[C@]5(CC)C=CCN6CC[C@]43[C@@H]65)C2)C1 [VCR, vincristine]: 8.3
COc1cccc2c1C(=O)c1c(O)c3c(c(O)c1C2=O)C[C@@](O)(C(=O)CO)C[C@@H]3O[C@H]1C[C@H](N)[C@H](O)[C@H](C)O1 [ADM, adriamycin]: 7.1
Nc1ccn([C@@H]2O[C@H](CO)[C@@H](O)[C@@H]2O)c(=O)n1 [Ara-C, cytarabin]: 1.4

The reported numbers originate from patent US5004756A.
